The reported numbers originate from PubChem BioAssay (NCATS).

Tested on: JCK
Assay Summary: qHTS profiling for inhibitors of Plasmodium falciparum proliferation (AID 504749); further: nearly all actives have a fitted effect of over 60% in size
Assay Conditions: P. falciparum in erythrocytes, SYBR Green DNA, 72 h; series mostly up to 28.7 µM
Results filed as inconclusive are left out. The source made the active and inactive calls. The call rests on the fitted dose curve; in most records, active means well fitted inhibition curve with a large enough effect; inconclusive means small, poorly fitted or top-dose-only effect; inactive means flat fitted curve, though single readings scatter.
Reported Property: outcome

O=[N+]([O-])OC1CO[C@H]2C(O[N+](=O)[O-])COC12 (stereo partly drawn)    inactive
CCCN1CCCC2Cc3nc(N)ncc3CC21 (stereo not drawn)    inactive
CC1OC(O[C@H]2C[C@@H](O)[C@]3(CO)[C@@H]4C(CC[C@]3(O)C2)[C@@]2(O)CC[C@H](C3=CC(=O)OC3)[C@@]2(C)C[C@H]4O)C(O)C(O)C1O (stereo partly drawn)    inactive

----------
Assay Summary: Cell Viability - LYMP2-013 (AID 970);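 further: cells exposed to compound for 24 h at 37 °C; nearly all actives have a fitted effect of over 55% in size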; further: potency means the concentration at half of the fitted maximal effect
Assay Conditions: LYMP2-013 lymphoblastoid cells viability; series mostly up to 92.2 µM
Results filed as inconclusive are left out. Activity calls are given as the source filed them. The call rests on the fitted dose curve; in most records, active means well fitted cell-killing curve with a large enough effect; inconclusive means small, poorly fitted or top-dose-only effect; inactive means flat fitted curve, though single readings scatter.
Reported Property: Potency

Worked examples, 5 compounds total:
O=[N+]([O-])c1cc(C(F)(F)F)cc([N+](=O)[O-])c1Cl    39.8 µM (active)
Clc1ccc(C(c2ccc(Cl)cc2)C(Cl)Cl)cc1    inactive
ClC1=C(Cl)C(Cl)(Cl)C(Cl)=C1Cl    6.31 µM (active)
ClC1=C(Cl)C2(Cl)C3C(Cl)C(Cl)CC3C1(Cl)C2(Cl)Cl (stereo not given)    inactive
CN(C)c1ccc(N=O)cc1    1.58 µM (active)

GET /value?item= `C[C@@H]1CC[C@@]2(OC1)O[C@H]1[C@@H](O)[C@H]3[C@@H]4CC[C@H]5C[C@@H](O[C@@H]6O[C@H](CO)[C@H](O[C@@H]7O[C@H](CO)[C@@H](O)[C@H](O[C@@H]8OC[C@@H](O)[C@H](O)[C@H]8O)[C@H]7O[C@@H]7O[C@H](CO)[C@@H](O)[C@H](O[C@@H]8O[C@H](CO)[C@@H](O)[C@H](O)[C@H]8O)[C@H]7O)[C@H](O)[C@H]6O)[C@H](O)C[C@]5(C)[C@H]4CC[C@]3(C)[C@H]1[C@@H]2C` &field=Potency returns 20 µM (active)

----------
Tested on: CP262
Assay Summary: qHTS profiling for inhibitors of Plasmodium falciparum proliferation (AID 504749); further: nearly all actives have a fitted effect of over 60% in size
Assay Conditions: P. falciparum in erythrocytes, SYBR Green DNA, 72 h; series mostly up to 28.7 µM
Inconclusive results are not listed. Calls of active or inactive are those of the source. The call rests on the fitted dose curve; in most records, active means well fitted inhibition curve with a large enough effect; inconclusive means small, poorly fitted or top-dose-only effect; inactive means flat fitted curve, though single readings scatter.
Classes to choose from: active, inactive

Before answering, review these 4 worked examples.
[S]=[Sb][S][Sb]=[S]    inactive
CCOC(=O)c1cncn1[C@@H](C)c1ccccc1    inactive
CC(=O)[C@H]1CC[C@H]2C3CC[C@H]4C[C@H](O)CC[C@]4(C)C3CC[C@]12C (stereo not given in full)    inactive
CCCCCC(O)C1C(=O)OC(C)C(O)\C=C/C=C\C=C/C=C\C=C(\C)C(O)C(O)C(O)CC(O)CC(O)CC(O)CC(O)CC1O (stereo not given)    inactive

Read the next record carefully.
## Task For this molecule, state the assay outcome: COC(C(=O)C(O)C(C)O)C1Cc2cc3cc(OC4CC(OC5CC(O)C(OC)C(C)O5)C(OC(C)=O)C(C)O4)c(C)c(O)c3c(O)c2C(=O)C1OC1CC(OC2CC(OC3CC(C)(O)C(OC(C)=O)C(C)O3)C(O)C(C)O2)C(O)C(C)O1 (stereo not given)
## Result active

----------
Let's look at some compounds and their measured activity change % (negative = inhibition).
Target System: Thyroid hormone receptor beta (Homo sapiens) (UniProt P10828)
Sequence (P10828 whole entry, looked up): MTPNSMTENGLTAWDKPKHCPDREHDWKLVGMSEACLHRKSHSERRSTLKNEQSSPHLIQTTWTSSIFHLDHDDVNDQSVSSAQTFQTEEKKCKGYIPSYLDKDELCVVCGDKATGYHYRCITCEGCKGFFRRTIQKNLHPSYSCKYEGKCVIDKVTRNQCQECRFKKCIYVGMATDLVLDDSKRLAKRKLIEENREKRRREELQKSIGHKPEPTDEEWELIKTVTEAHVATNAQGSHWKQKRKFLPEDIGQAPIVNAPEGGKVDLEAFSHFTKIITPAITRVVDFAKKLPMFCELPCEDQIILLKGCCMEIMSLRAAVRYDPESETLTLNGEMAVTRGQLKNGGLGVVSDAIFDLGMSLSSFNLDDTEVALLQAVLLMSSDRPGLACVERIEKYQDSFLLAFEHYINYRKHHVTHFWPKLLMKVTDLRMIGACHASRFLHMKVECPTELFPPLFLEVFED
Assay Summary: qHTS assay for small molecule antagonists of thyroid hormone receptor beta signaling (AID 588547);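 further: cells stimulated with 0.4 nM T3 agonist during compound exposure; on the % scale 0 is the no-effect control and ±100 the full control effect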
Assay Conditions: TR-UAS-bla HEK293, beta-lactamase ratio, antagonist mode, 18 h
Records with an inconclusive call do not appear.
The response must be a number in % with no trailing unit.

A selection of reference data follows.
COc1cccc(C(=O)NN(C(=O)c2cc(C)cc(C)c2)C(C)(C)C)c1C    -4.61
CCOP(=O)(SC(C)CC)SC(C)CC (stereo unspecified)    -3.53

Record summary for `CSC1=N[C@@](C)(c2ccccc2)C(=O)N1Nc1ccccc1` : reported activity change % (negative = inhibition) = -28.6

Please fill in: activity change % (negative = inhibition) reported for `O=C(NC(=O)c1c(F)cccc1F)Nc1cc(Cl)c(OC(F)(F)C(F)F)c(Cl)c1` = -14.9

activity change % (negative = inhibition) for `O=C(NC(=O)c1c(F)cccc1F)Nc1ccc(Cl)cc1` is -1.34

----------
Assay Summary: qHTS assay for small molecule agonists of the antioxidant response element (ARE) signaling pathway measured by Nrf2-dependant transcriptional activity (AID 720636);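 on activation: HepG2 cells with an ARE-driven luciferase reporter; % of control where 0% means no effect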
Assay Conditions: ARE-luc HepG2, Nrf2 luciferase reporter, 16 h; series mostly up to 92.4 µM
Results filed as inconclusive are left out. Activity calls are given as the source filed them. Calls follow the shape of the dose curve; as a rule, active = well fitted activation curve with a large enough effect in the repeat runs; inconclusive = weak or mixed curves; inactive = flat fitted curve, though single readings scatter.
# valid calls are t = active, f = inactive; nothing else

Oc1c(Br)c(Br)c(Br)c(Br)c1Br    f
O=S(=O)(c1ccc(O)cc1)c1ccc(O)cc1    f
Cc1nn(-c2cc(NS(C)(=O)=O)c(Cl)cc2Cl)c(=O)n1C(F)F    f
COc1cc(Cl)c(OC)cc1Cl    f
C=CC(=O)OCC(CC)(COC(=O)C=C)COC(=O)C=C    t
CCOP(=O)(OCC)OP(=O)(OCC)OCC    f

Switching to the query record.
## Task Recorded test outcome, item `CCC(C)(CC)c1cc(NC(=O)c2c(OC)cccc2OC)on1`
## Result f

----------
Assay Summary: Cell Viability - MRC5 (AID 434);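 further: potency means the concentration at half of the fitted maximal effect; cells exposed to compound for 40 hours at 37 °C; potency reflects cytotoxicity seen as loss of intracellular ATP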
Assay Conditions: MRC5 lung fibroblast viability, qHTS
Inconclusive results are not listed. The source made the active and inactive calls. Calls come from the whole dose curve.
Choose the fitting class; nothing outside Y for active, N for inactive is accepted.

Clc1ccc(C(c2ccc(Cl)cc2)C(Cl)Cl)cc1    Y
FC(F)(F)c1ccc(Cl)cc1    N

## Task For `O=[N+]([O-])c1cc(C(F)(F)F)cc([N+](=O)[O-])c1Cl` , which call appears in the assay record?
## Result N

## Task Test call, this compound: `O=[N+]([O-])c1ccccc1Cl`
## Result N

## Task Could you kindly confirm the outcome this assay logged for `c1ccc2cc3c(cc2c1)-c1cccc2cccc-3c12` ?
## Result N

## Task I'd appreciate the recorded outcome for `[CH3][Hg][Cl]` from this test.
## Result Y

## Task State the result this test recorded for `CC(=O)[O-].CC(=O)[O-].O.O.[Cd+2]` .
## Result N

----------
Assay Summary: Cell Viability - H-4-II-E (AID 543);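 further: cells exposed to compound for 40 hours; nearly all actives have a fitted effect of over 35% in size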
Assay Conditions: H-4-II-E rat hepatoma viability; series mostly up to 92.2 µM
Inconclusive results are not listed. Calls of active or inactive are those of the source. The call rests on the fitted dose curve; in most records, active means well fitted cell-killing curve with a large enough effect; inconclusive means small, poorly fitted or top-dose-only effect; inactive means flat fitted curve, though single readings scatter.
Respond with a class label; see active, inactive

// below: answered compounds
O=C(CCl)c1ccccc1    active
CC(=O)[O-].CC(=O)[O-].O.O.[Cd+2]    active
CN(C)c1ccc(N=O)cc1    active
[Cd+2].[Cl-].[Cl-]    active
C(=NC1CCCCC1)=NC1CCCCC1    active
O=C(O)C1C(C(=O)O)C2(Cl)C(Cl)=C(Cl)C1(Cl)C2(Cl)Cl (stereo unspecified)    inactive
CC(C)CC(C)Nc1ccc(Nc2ccccc2)cc1 (stereo unspecified)    active
C#CCO    inactive
O=[N+]([O-])C(Br)Br    active
N#CSCSC#N    active

--- query ---
## Task Hi, do you know how `CCCCCCCCn1sccc1=O` came out in this test?
## Result active

----------
Test system: CP335
Assay Summary: qHTS profiling for inhibitors of Plasmodium falciparum proliferation (AID 504749); further: nearly all actives have a fitted effect of over 60% in size
Assay Conditions: P. falciparum in erythrocytes, SYBR Green DNA, 72 h; series mostly up to 28.7 µM
Results filed as inconclusive are left out. Calls of active or inactive are those of the source. Calls come from the whole dose curve; as a rule, active = well fitted inhibition curve with a large enough effect; inconclusive = small, poorly fitted or top-dose-only effect; inactive = flat fitted curve, though single readings scatter.
# valid calls are active, inactive; nothing else

CCOC(=O)/C=C(C)/C=C/CC(C)CCCC(C)C (stereo unspecified)    inactive
Cc1ccc2c(c1)[C@@H]1CN(C)CC[C@H]1N2    inactive
CC(=O)Oc1ccc2c3c1OC1[C@@H](OC(C)=O)C=C[C@H]4[C@H](C2)N(C)CC[C@]314 (stereo partly specified)    inactive
C[C@@H]1CC[C@H]2[C@@H](C)C(=O)O[C@@H]3OC4(C)CC[C@@H]1C32OO4 (stereo partly specified)    active
CC12CCC3C4CCC(=O)C(O)=C4CCC3C1CCC2OC(=O)CCC1CCCC1 (stereo unspecified)    inactive

## Task # outcome recorded in this test, key = CCCN1CCCC2Cc3nc(N)ncc3CC21 (stereo unspecified)
## Result inactive

----------
Target System: Androgen receptor (Homo sapiens)
Assay Summary: qHTS assay for small molecule antagonists of androgen receptor signaling (AID 588516)
Assay Conditions: AR-UAS-bla HEK293, beta-lactamase ratio, antagonist mode, 16 h; series mostly up to 76.8 µM
Records with an inconclusive call do not appear. Active and inactive are the calls of the source. Calls come from the whole dose curve; as a rule, active = well fitted curve in the direction sought with a large enough effect in the signal ratio, with a control signal flat (not every such curve was filed as active); inconclusive = small, poorly fitted or top-dose-only effect, or effect the other way, or a change in a side signal; inactive = no such curve, though single readings can be large or run the other way; the % refers to the signal ratio.
Output constraint: value belongs to 1 for active, -1 for inactive

Worked set:
CCOP(=S)(OCC)SC(CCl)N1C(=O)c2ccccc2C1=O (stereo unspecified)    -1
Cc1cc(Cl)ccc1OCC(=O)O    -1
CCOP(=O)(NC(C)C)Oc1ccc(S(C)(=O)=O)c(C)c1 (stereo unspecified)    -1
COc1cc(OC)nc(NC(=O)NS(=O)(=O)c2cc(NC=O)ccc2C(=O)N(C)C)n1    -1
CCOP(=O)(OCC)SCSCC    -1
CCC[CH2][Sn](=[O])[CH2]CCC    -1

## Task For this compound, state the assay outcome: `ClC1=C(Cl)[C@@]2(Cl)[C@H]3C[C@@H](Cl)[C@H](Cl)[C@H]3[C@@]1(Cl)C2(Cl)Cl`
## Result -1

## Task Dear all, I need the recorded test outcome for `CCOP(=O)(OCC)OP(=O)(OCC)OCC` , thank you.
## Result -1

## Task # lookup: test call for `CCC(C)(C)c1cc(-n2nc3ccccc3n2)c(O)c(C(C)(C)CC)c1`
## Result -1

## Task // outcome(item) with item = `CNC(=O)O/N=C(\SC)C(=O)N(C)C`
## Result -1

## Task Outcome? `CC1(C)CN=C(NN=C(/C=C/c2ccc(C(F)(F)F)cc2)/C=C/c2ccc(C(F)(F)F)cc2)NC1`
## Result 1
